Each recorded value in this set is attributed to patent US20250270296A1.

# Substrate: S protein of SARS-CoV-2 variant P1 (Brazil, Gamma), full length, on pseudovirus or authentic virus (SARS-CoV-2), P0DTC2
# Assay Protocol: cell-based or functional assay
Outcome Measure: SARS-CoV2 pseudovirus IC50 (ng/mL)
# unit: ng/mL | format: bare number

Form field SARS-CoV2 pseudovirus IC50, entry RBD-chAb-15 (antibody, V domains shown) VH: EVQLEESGPGLVQPSQSLSITCTVSDFSLTTYGVHWVRQSPGKGLEWLGVIWSGGSTDYNAAFISRLSISKDNSKSQVFFKMNSLQTNDTAIYYCARMGDGYYVGAMDYWGQGTSVTVSS VL: DIQLTQSPAILSVSPGERVSFSCRASQSIGTSIHWYQQRTNGSPRHLIKYASESISGIPSRFSGSGSGTDFTLTINGVESEDIADYYCQQGHNWPLTFGAGTKLDIK : 7.18

Form: binder = RBD-chAb-45 (antibody, V domains shown) VH: EVQLQQSGPELVKPGASVKISCKTSGYTFTEYTIYWVKQSLGKSLEWIGGNNPNNDDTTYKQFFKGKATLTVDKSSSTAYMELRSLTSEDSAVYYCARDGYPYYYALDFWGQGTSVTVSS VL: DILMTQSQKFMSTSVGDRVSVTCKSSQNVGTNVAWYQQKPGQSPKALIYSASYRYSGVPDHFTGSGSGTDFTLTISNVQSADLAEYFCQQYNNYPWTFGGGTKLDIK ; SARS-CoV2 pseudovirus IC50 = 0.76

Entry RBD-chAb-51 (antibody, V domains shown) VH: EVQLQQSGPELVKPGASAKISCKTSGYTFTEYTMYWVKQSHGKSLEWIGGINPNNGDTTYNQTFKGKATLTVDKSSSTAYMELRSLTSEDSAVYYCARDGYPFYYALDYWGQGISVTVSS VL: DIVMTQSQKFMSTSVGDRVSVTCKARQIVGTNVAWYQQKPGQSPKALIYSASYRYSGVPDRFTGSGSGTDFTLTITNVHSEDLAEFFCHQYNSYPWTFGGGTKLDIK ; SARS-CoV2 pseudovirus IC50 = 0.7

Summary for this binder, RBD-chAb-1 (antibody, V domains shown) VH: EVQLQQSGPQLVRPGASMKISCKASGYSFTTYWMHWVKQRPGQGLQWIGMIDPSDSETRLNQKFKDKATLTVDKSSSTAYMQLSSPTSEDSAVYYCARDFDYDRTMDYWGQGTSVTVSS VL: DIVMSQSPSSLAVSVGEKVTMSCKSSQSLLFSSSQKNYLAWYQQKAGQSPKLLIFWASTRESGVPDRFTGSGSGTDFTLTISSVKAEDLAIYYCKQYYKYPLTFGAGTKLDIK : SARS-CoV2 pseudovirus IC50 is 17.1

Value of measured SARS-CoV2 pseudovirus IC50 for the entry RBD-chAb-28 (antibody, V domains shown) VH: QVQLQQPGTELVMPGASVKMSCKASGYTFTDYYLHWMKQRPGQGLEWIGAIDSSDSYTDYNQNFKGKATLTVDESSSTAYMHLSSLTSEDSAVYYCARGKDAYDRRPWFAYWGQGTLVTVSA VL: DIQMTQTTSSLSASLGDRVTISCSASQGIRYYLNWYQQKPDGTVKLLIYYTSNLHSGVPSRFSGSGSGTDYSLTISNLEPEDIATYYCQQYNKLPYTFGGGTKLDIK : 4.18
